Examples of compounds with documented pIC50 follow.
- experimental_system: Nucleotide-binding oligomerization domain-containing protein 2 (Homo sapiens, UniProt Q9HC29)
- Sequence (Q9HC29 whole entry, the tested form may be a part): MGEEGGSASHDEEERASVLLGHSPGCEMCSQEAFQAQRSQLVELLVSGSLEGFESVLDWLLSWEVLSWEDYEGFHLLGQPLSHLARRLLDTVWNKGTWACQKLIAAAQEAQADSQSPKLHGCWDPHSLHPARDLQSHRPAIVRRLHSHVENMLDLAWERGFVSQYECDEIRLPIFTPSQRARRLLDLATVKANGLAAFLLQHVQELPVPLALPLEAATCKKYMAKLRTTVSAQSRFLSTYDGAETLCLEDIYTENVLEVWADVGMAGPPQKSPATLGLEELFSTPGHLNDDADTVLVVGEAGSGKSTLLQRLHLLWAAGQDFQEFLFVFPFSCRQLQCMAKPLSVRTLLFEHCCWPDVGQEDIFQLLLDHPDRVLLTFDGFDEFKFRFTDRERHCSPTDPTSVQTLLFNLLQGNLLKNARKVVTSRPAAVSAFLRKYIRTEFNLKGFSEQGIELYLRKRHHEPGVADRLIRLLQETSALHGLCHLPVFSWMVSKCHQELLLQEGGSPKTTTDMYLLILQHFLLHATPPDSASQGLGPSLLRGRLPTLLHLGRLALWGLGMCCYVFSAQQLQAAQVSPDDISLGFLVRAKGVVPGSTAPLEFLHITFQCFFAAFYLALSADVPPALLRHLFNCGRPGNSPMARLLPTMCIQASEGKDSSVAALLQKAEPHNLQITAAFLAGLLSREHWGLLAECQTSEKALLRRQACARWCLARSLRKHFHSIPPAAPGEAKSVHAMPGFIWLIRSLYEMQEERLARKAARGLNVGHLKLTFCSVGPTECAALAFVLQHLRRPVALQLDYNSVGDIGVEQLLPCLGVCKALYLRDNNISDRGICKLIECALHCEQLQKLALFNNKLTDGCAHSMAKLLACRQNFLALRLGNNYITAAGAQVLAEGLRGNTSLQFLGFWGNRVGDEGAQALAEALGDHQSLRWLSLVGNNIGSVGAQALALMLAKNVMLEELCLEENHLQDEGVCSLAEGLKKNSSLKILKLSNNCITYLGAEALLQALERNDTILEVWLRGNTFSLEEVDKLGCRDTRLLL
pIC50: −log10 of the molar value.
metric: pIC50

| compound | modifier | meas_value |
| --- | --- | --- |
| CCC(=O)N1c2ccc(S(=O)(=O)N3CCN(c4ccc([N+](=O)[O-])cc4)CC3)cc2CC1C (racemic) | = | 5.81 |
| CN(C)c1ccc(NC(=O)c2ccc(CN3CCc4ccccc4C3)cc2)cc1 | = | 5.45 |
| COc1ccc(NC(=O)c2ccc(CN3CCCCC3)cc2)cc1 | < | 4.70 |
| CCC(=O)N1CCc2cc(S(=O)(=O)N3CCN(c4ccc(C(C)=O)cc4)CC3)ccc21 | < | 4.70 |
| COc1ccc(NC(=O)c2ccc(CN3CCc4ccccc43)cc2)cc1 | < | 4.70 |
